- Target Desc: CDK7/cyclin H (Homo sapiens, UniProt P50613)
- Sequence (P50613 whole entry): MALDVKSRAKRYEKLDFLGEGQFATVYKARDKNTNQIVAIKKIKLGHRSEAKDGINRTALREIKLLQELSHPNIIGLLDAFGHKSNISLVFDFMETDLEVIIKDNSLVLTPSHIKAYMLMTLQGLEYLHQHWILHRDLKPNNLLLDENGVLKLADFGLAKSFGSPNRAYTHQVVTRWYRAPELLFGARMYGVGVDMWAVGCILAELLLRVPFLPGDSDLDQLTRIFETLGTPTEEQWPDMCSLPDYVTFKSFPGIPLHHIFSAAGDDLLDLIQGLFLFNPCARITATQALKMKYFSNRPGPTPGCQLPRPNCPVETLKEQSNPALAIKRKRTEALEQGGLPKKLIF
- Sequence (P51946 whole entry partner): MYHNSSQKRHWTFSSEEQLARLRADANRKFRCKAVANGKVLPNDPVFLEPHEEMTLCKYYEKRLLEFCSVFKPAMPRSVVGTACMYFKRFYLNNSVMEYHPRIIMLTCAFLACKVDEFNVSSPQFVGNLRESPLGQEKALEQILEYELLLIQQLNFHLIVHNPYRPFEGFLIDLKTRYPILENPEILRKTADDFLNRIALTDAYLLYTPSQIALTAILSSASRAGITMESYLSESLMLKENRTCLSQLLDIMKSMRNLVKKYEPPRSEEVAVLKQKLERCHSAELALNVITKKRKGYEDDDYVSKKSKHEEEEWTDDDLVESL
- Procedure Text: CDK 7 assay (CTD peptide substrate)
- Type: biochemical
- Conditions: read-out: Kinase Inhibition pIC50 CDK7-cyclin H (converted)
- Protocol: Kinase assays. The compounds of the invention above were investigated for their ability to inhibit the enzymatic activity of various protein kinases (Table 2). This was achieved by measurement of incorporation of radioactive phosphate from ATP into appropriate polypeptide substrates. […] After washing 3 times with 75 mM aq orthophosphoric acid, plates were dried, scintillant added and incorporated radioactivity measured in a scintillation counter (TopCount, Packard Instruments, Pangbourne, Berks, UK). […]
Measurement Type: IC50 (µM)

COc1cc(Nc2nccc(-c3sc(C)nc3C)n2)ccc1N1CCOCC1
3.16

(I) CC(=O)N1CCN(c2cccc(Nc3nccc(-c4sc(C)nc4C)n3)c2)CC1
(II) CNc1nc(C)c(-c2ccnc(Nc3cccc(S(=O)(=O)NC)c3)n2)s1
Problem: Higher IC50: I or II ? Kindly give the label for the entry you pick.
Result: I

Values compiled from patent US20090137572A1.
